- assay-target: GIRK1/4 (Homo sapiens (Human), UniProt P48544+P48549)
- Sequence (P48549 whole entry): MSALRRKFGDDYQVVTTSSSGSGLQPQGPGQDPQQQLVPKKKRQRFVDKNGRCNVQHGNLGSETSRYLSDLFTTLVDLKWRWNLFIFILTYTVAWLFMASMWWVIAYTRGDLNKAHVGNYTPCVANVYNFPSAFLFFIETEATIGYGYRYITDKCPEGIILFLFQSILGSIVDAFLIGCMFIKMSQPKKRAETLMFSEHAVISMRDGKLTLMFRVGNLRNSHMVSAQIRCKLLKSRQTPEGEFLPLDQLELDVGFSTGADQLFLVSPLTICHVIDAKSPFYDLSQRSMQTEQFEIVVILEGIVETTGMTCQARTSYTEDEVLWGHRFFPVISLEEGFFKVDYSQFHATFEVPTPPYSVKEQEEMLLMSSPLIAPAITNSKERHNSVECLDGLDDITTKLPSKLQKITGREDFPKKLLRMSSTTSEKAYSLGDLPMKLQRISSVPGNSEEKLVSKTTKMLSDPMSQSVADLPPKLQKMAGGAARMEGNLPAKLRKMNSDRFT
- Sequence (P48544 whole entry): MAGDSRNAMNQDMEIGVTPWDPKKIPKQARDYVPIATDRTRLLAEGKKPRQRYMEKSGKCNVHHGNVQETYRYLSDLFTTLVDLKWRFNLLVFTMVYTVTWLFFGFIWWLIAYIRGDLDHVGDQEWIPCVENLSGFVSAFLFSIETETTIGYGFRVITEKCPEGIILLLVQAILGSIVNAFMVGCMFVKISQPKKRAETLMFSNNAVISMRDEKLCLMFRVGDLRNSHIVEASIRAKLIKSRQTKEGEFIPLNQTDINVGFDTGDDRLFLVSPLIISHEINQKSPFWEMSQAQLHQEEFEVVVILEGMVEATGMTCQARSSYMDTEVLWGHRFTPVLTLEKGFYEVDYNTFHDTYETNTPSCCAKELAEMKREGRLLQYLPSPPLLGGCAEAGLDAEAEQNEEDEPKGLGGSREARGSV
- assay-details: GIRK1/4 inhibition, Quattro (IonWorks) population patch clamp, inward potassium current in GIRK 1/4 HEK293 stable cells (test assay No. 1)
- reported-conditions: percentage of current inhibition normalized to DMSO-only control
- Experimental: The activity of a compound according to the present invention can be assessed by the following in vitro method. • 1. Buffers: • a. External buffer: 10 mM NaCl, 50 mM Na Gluconate, 80 mM K Gluconate, 1.8 mM CaCl2, 1 mM MgCl2, 10 mM HEPES, 10 mM Glucose, pH 7.4; osmolality 300-310 Osm/L. • b. […] IC50 values are calculated by plotting the percentage of current inhibition (normalized to the DMSO-only control) as a function of compound concentration using standard data analysis software.
pIC50: −log10 of the molar value.
Returns Condition met if the recorded pIC50 is greater than or equal to 7, and Condition not met otherwise.

Answered examples (3):
molecule: Cc1cc(=O)c2c(OCCO)ncc(Cl)c2n1-c1c(Cl)cc(C#CCN2CCS(=O)(=O)CC2)cc1Cl [Example 92]
group: Condition met
--
molecule: Cc1cc(=O)c2c(C(O)CO)ncc(Cl)c2n1-c1c(Cl)cccc1Cl (centres unmarked) [Example 85]
group: Condition met
--
molecule: O=c1cc(CO)n(-c2c(Cl)cccc2Cl)c2c(Cl)cnc(CC(O)CO)c12 (single isomer, unassigned) [Example 79]
group: Condition not met

Pending molecule:
Ask: Decide: pIC50 of O=c1cc(CO)n(-c2c(Cl)cccc2Cl)c2c(Cl)cnc(CC(O)CO)c12 (single isomer, unassigned) [Example 80] >= 7?
Reply: Condition not met
